Where these numbers come from: PubChem BioAssay (Tox21)

Test: qHTS assay to identify small molecule antagonists of the glucocorticoid receptor (GR) signaling pathway - cell viability counter screen (AID 720693); further: nearly all actives have a fitted effect of over 55% in size
Details: GR-bla HeLa viability, CellTiter-Glo luminescence, 18 h, with 5 nM dexamethasone present; series mostly up to 58.5 µM
Records with an inconclusive call do not appear. Calls of active or inactive are those of the source. The call rests on the fitted dose curve; in most records, active means well fitted cell-killing curve with a large enough effect in the repeat runs; inconclusive means weak or mixed curves, or effect the other way; inactive means no such curve, though single readings can be large or run the other way.
Bench note: report the call from active, inactive

Sample answers from the record:
O=C1OC[C@H](Cc2cccc(O)c2)[C@H]1Cc1cccc(O)c1 ... inactive
O=C(O)CCCc1c[nH]c2ccccc12 ... inactive
NC(=O)c1ccccc1[N+](=O)[O-] ... inactive
CC(C)COC(=O)c1ccc(O)cc1 ... inactive
COc1cc(S(=O)(=O)Nc2ccccc2)c(OC)cc1N ... inactive

Inquiry: Give the logged outcome of this assay for the following compound: `CCN(CC)CCOc1ccccc1C(=O)CCc1ccccc1`
Reply text: inactive

Inquiry: Subsequent entry: COC1CCC=CO1 (configuration not stated)
Reply text: inactive

Inquiry: Subsequent entry: CNS(=O)(=O)c1cc(C(=O)N2CCC(CCN3C4CCC3CC(n3c(C)nc5ccccc53)C4)(c3cccc(F)c3)CC2)c(Cl)cc1F (configuration not stated)
Reply text: active

Inquiry: Subsequent entry: `CC[C@H]1OC(=O)[C@H](C)[C@@H](O[C@H]2C[C@@](C)(OC)[C@@H](O)[C@H](C)O2)[C@H](C)[C@@H](O[C@@H]2O[C@H](C)C[C@H](N(C)C)[C@H]2O)[C@](C)(O)C[C@@H](C)CN(C)[C@H](C)[C@@H](O)[C@]1(C)O`
Reply text: inactive

---

Molecular target: Nuclear receptor subfamily 1 group I member 2 (Homo sapiens) (UniProt O75469)
Sequence (O75469 whole entry, looked up): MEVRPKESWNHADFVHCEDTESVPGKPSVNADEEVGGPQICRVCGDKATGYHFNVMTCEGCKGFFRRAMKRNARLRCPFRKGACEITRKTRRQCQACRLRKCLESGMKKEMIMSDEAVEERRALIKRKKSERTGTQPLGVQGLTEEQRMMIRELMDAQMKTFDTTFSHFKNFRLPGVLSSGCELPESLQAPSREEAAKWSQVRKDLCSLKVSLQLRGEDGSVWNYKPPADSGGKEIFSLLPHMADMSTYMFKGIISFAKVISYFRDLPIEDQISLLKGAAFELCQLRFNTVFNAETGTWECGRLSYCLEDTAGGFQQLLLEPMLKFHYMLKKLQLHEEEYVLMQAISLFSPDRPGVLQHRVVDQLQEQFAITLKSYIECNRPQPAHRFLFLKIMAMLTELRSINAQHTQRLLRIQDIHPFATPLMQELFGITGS
Assay: Human pregnane X receptor (PXR) small molecule agonists, qHTS assay (AID 1346982); further: nearly all actives have a fitted effect of over 35% in size
Settings: PXR-Luc HepG2, CYP3A4 luciferase reporter, 24 h; series mostly up to 92.4 µM
Records with an inconclusive call do not appear. Active and inactive are the calls of the source. The call rests on the fitted dose curve; in most records, active means well fitted activation curve with a large enough effect in the repeat runs; inconclusive means weak or mixed curves; inactive means no such curve, though single readings can be large or run the other way.
Bench note: report the call from label 1 (active), label 0 (inactive)

Sample answers from the record:
CCN(CC)C(=O)N1CCN(C)CC1 ... label 0
CN1CCCN(C(c2ccccc2)c2ccc(Cl)cc2)CC1 (stereo not given) ... label 0
CCCCCCCC/C=C/C(=O)O ... label 0
Cc1cccc2sc(N)nc12 ... label 1
O=C(c1ccccc1)C1CCC1 ... label 0
COc1cc(NCc2ccc3nc(N)nc(N)c3c2C)cc(OC)c1OC ... label 0

Inquiry: Give the logged outcome of this assay for the following molecule: `CCC(CO)(CO)CO`
Reply text: label 0

Inquiry: Subsequent entry: `O=C1OC(=O)c2c(Br)c(Br)c(Br)c(Br)c21`
Reply text: label 0

Inquiry: Subsequent entry: `O=C(O)CCCc1c[nH]c2ccccc12`
Reply text: label 0

Inquiry: Subsequent entry: `O=S(=O)(O)CO`
Reply text: label 0

Inquiry: Subsequent entry: `N[C@@H](Cc1cc(I)c(O)c(I)c1)C(=O)O`
Reply text: label 0

---

Experiment: qHTS assay to identify small molecule agonists of the peroxisome proliferator-activated receptor delta (PPARd) signaling pathway - cell viability counter screen (AID 743211); further: nearly all actives have a fitted effect of over 55% in size
Details: PPARd-bla HEK293H viability, CellTiter-Glo luminescence, 17 h; series mostly up to 62.6 µM
Records with an inconclusive call do not appear. Active and inactive are the calls of the source. Calls come from the whole dose curve; as a rule, active = well fitted cell-killing curve with a large enough effect in the repeat runs; inconclusive = weak or mixed curves; inactive = no such curve, though single readings can be large or run the other way.
Bench note: report the call from True (active), False (inactive)

COC(=O)Nc1nc2ccc(C(=O)C3CC3)cc2[nH]1 ... False
CCCC(=O)OC(=O)CCC ... False
CC(=O)OCC(=O)[C@@]1(OC(C)=O)[C@@H](C)C[C@H]2[C@@H]3C[C@H](F)C4=CC(=O)C=C[C@]4(C)[C@@]3(F)[C@@H](O)C[C@@]21C ... False
CCc1ccc(C)cc1 ... False
CC1=CC[C@@]23C[C@@H]1C(C)(C)[C@@H]2CC[C@H]3C ... False
CC1CCCC(=O)C1=O (stereo not drawn) ... False
O=P(O)(O)Oc1ccccc1 ... False
CC(CN(CCN(CC(C)OCCO)CC(C)OCCO)CC(C)OCCO)OCCO (stereo not drawn) ... False
Nc1ccc(NC(=O)c2ccc(N)cc2)cc1 ... False
CN=C(N)NC(=O)Nc1c(C)cccc1C ... False

Inquiry: Give the logged outcome of this assay for the following molecule: CNS(=O)(=O)c1cc(C(=O)N2CCC(CCN3C4CCC3CC(n3c(C)nc5ccccc53)C4)(c3cccc(F)c3)CC2)c(Cl)cc1F (stereo not drawn)
Reply text: True

Inquiry: Subsequent entry: `CCOC(=O)Oc1ccc(CCNC(=O)[C@H](CCSC)NC(C)=O)cc1OC(=O)OCC`
Reply text: False

Inquiry: Subsequent entry: `Cc1cccc2sc(N)nc12`
Reply text: False
